Reference for the values: patent US20060276520A1

target of assay: APC2/APC11 (Homo sapiens, UniProt Q9NYG5+Q9UJX6)
Sequence (Q9UJX6 whole entry): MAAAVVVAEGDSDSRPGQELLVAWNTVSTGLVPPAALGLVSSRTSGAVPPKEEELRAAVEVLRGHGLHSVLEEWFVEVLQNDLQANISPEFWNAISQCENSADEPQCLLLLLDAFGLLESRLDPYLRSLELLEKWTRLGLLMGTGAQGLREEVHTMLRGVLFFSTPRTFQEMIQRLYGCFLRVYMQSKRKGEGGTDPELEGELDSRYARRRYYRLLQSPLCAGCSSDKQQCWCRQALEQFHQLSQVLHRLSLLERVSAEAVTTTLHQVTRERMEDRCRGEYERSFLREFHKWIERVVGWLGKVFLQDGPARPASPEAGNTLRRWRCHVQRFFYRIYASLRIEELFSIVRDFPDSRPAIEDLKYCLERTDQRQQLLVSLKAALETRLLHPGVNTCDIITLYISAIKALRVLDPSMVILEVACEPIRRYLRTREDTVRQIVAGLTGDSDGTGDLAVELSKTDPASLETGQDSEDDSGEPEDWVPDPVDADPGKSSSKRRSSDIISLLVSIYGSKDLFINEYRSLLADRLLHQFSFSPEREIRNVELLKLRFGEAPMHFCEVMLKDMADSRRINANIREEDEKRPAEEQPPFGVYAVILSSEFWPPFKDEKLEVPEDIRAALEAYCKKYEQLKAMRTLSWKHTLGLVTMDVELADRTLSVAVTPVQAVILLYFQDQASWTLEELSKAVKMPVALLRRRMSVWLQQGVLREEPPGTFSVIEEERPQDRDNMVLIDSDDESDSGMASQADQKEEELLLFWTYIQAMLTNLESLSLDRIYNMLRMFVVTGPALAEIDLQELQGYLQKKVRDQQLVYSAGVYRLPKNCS
Sequence (Q9NYG5 whole entry): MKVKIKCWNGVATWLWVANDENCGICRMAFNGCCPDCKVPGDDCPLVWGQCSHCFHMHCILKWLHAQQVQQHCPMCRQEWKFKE
protocol: biochemical
measure: pIC50
One number for each entry, as −log10 of the molar value.

Lab note: measured pIC50 of COc1ccc(-c2ccc(/C=C3/SC(=S)NC3=O)o2)cc1Cl was 5.70

---

target of assay: MDM2/P53 (Homo sapiens, UniProt Q00987)
Sequence (Q00987 whole entry): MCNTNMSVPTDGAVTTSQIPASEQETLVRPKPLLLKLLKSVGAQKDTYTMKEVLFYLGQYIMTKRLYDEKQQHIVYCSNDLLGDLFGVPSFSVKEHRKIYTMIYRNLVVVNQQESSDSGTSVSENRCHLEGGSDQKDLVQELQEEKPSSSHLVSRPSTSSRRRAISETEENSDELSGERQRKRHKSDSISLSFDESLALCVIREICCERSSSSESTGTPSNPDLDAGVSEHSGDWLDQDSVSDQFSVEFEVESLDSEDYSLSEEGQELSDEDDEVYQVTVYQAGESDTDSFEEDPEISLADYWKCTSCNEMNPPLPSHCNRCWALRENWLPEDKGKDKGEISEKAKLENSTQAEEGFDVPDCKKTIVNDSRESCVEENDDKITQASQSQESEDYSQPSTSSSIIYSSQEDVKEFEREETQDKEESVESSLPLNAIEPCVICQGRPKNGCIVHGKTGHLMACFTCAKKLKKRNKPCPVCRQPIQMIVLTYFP
protocol: biochemical
Label key: T means IC50 under 1 µM; F means IC50 of 1 µM or more.

>>> df
                                   compound                          target_of_assay  assigned_label
0  O=C1/C(=C/c2ccc(-c3ccccc3Cl)o2)SC(=S)N1CCc1ccccn1  MDM2/P53 (Homo sapiens, UniProt Q00987)               F
1  O=C1/C(=C/c2ccc(-c3ccccc3Cl)o2)SC(=S)N1CCc1cccs1  MDM2/P53 (Homo sapiens, UniProt Q00987)               F
2  O=C1/C(=C\c2ccc(-c3ccc([N+](=O)[O-])cc3)o2)SC(=S)N1CCc1ccccc1  MDM2/P53 (Homo sapiens, UniProt Q00987)               F

In: Answer whether the compound CC(C)(C)OC(=O)[C@H](Cc1ccccc1)NC(=O)CN1C(=O)/C(=C/c2ccc(-c3ccccc3Cl)o2)SC1=S has IC50 strictly less than 1 µM
Out: T

In: Field: below-cutoff. Rule: recorded IC50 strictly less than 1 µM. Subject: C[C@H](NC(=O)CN1C(=O)/C(=C/c2ccc(-c3ccccc3Cl)o2)SC1=S)C(=O)OC(C)(C)C
Out: F

In: # TODO verify IC50 < 1 µM strictly for this compound: O=C1/C(=C\c2ccc(-c3ccccc3Cl)o2)SC(=S)N1C1CCS(=O)(=O)C1 (stereo not shown)
Out: T

In: Decide: IC50 of NS(=O)(=O)c1ccc(-c2ccc(/C=C3\SC(=S)N(CCc4ccccc4)C3=O)o2)cc1 strictly below 1 µM?
Out: F

In: Could you please tell me whether IC50 recorded for O=C1/C(=C/c2ccc(-c3cccc4ccccc34)o2)SC(=S)N1Cc1ccccc1 is less than 1 µM?
Out: F

In: I'd appreciate it if you could check whether O=C1/C(=C/c2ccc(-c3ccccc3Cl)o2)SC(=S)N1Cc1ccco1 has IC50 smaller than 1 µM.
Out: T

In: In plain terms, does O=C1C(Cc2ccc(-c3ccccc3Cl)o2)SC(=S)N1Cc1ccc2c(c1)OCO2 (stereo not shown) come in under 1 µM for IC50?
Out: F

In: Answer whether the compound O=C(O)c1cccc(-c2ccc(/C=C3/SC(=S)N(c4cccc(Cl)c4)C3=O)o2)c1 has IC50 strictly less than 1 µM
Out: F

In: Given COc1ccc(CN2C(=O)/C(=C/c3ccc(-c4ccccc4Cl)o3)SC2=S)cc1 , is recorded IC50 strictly lower than 1 µM?
Out: F

---

target of assay: APC2/APC11 (Homo sapiens, UniProt Q9NYG5+Q9UJX6)
protocol: biochemical
measure: IC50

State the recorded IC50 for every item in the following list.
1. CN1C(=O)/C(=C\c2ccc(-c3cccc(Br)c3)o2)SC1=S
2. O=C(O)CN1C(=O)/C(=C\c2ccc(-c3ccc(Cl)cc3)o2)SC1=S
3. O=C(O)CN1C(=O)/C(=C\c2ccc(-c3cccc(C(F)(F)F)c3)o2)SC1=S
4. CN1C(=O)/C(=C/c2ccc(-c3ccc(S(N)(=O)=O)cc3)o2)SC1=S

Out:
1: 3.7 µM; 2: 10 µM; 3: 10 µM; 4: 5.15 µM

---

Task for the reader: assign each of the following compounds its reported IC50.
target of assay: ROC1/CUL2 (Homo sapiens, UniProt P62877+Q13617)
Sequence (P62877 whole entry): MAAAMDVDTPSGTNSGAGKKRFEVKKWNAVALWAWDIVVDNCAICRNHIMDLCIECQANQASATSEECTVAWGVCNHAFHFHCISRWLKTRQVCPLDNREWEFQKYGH
Sequence (Q13617 whole entry): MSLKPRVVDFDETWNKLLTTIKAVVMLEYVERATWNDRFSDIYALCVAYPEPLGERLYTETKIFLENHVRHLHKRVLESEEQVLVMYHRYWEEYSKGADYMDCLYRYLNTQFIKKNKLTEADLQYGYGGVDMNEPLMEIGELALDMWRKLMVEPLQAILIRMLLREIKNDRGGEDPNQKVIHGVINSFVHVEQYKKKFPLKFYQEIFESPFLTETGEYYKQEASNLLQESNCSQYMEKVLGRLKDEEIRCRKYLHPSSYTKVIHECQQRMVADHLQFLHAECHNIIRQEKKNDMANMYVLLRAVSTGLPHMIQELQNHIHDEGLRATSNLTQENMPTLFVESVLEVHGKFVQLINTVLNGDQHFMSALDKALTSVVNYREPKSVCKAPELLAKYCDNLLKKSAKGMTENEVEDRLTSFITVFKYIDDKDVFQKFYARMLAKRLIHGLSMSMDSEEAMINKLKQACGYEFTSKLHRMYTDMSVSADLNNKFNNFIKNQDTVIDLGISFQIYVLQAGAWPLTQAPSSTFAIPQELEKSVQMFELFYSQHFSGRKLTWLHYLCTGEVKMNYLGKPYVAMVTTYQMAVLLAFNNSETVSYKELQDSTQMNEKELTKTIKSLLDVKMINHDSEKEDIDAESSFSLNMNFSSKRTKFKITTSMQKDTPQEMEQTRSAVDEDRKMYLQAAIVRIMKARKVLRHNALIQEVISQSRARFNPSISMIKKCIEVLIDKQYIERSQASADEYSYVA
protocol: biochemical
Numbers only, in nM.

In [3]: df
Out[3]:
                                   compound  result_value
0  C=CCN1C(=O)C(Cc2ccc(-c3ccccc3Cl)o2)SC1=S (centres unmarked)          1000

Lab note: next compound to report on.
Value of measured IC50 for the entry C=CCN1C(=O)/C(=C/c2ccc(-c3cccc(Cl)c3)o2)SC1=S : 800

---

target of assay: APC2/APC11 (Homo sapiens, UniProt Q9NYG5+Q9UJX6)
protocol: biochemical
Please go through the items and note down their pIC50.
Numbers only, as −log10 of the molar value.

Below are worked cases with known answers.
                                chem_smiles  result_value
0  O=C(O)CCN1C(=O)/C(=C/c2ccc(-c3ccc(Br)cc3)o2)SC1=S          5.69
1  COc1ccc(N2C(=O)/C(=C\c3ccc(-c4ccc(Br)cc4)o3)SC2=S)cc1          5.00

Provide each entry's pIC50 from the list below.
1. CN1C(=O)/C(=C\c2ccc(-c3cccc([N+](=O)[O-])c3)o2)SC1=S
2. COc1ccc(CN2C(=O)/C(=C/c3ccc(-c4ccccc4Cl)o3)SC2=S)cc1
3. O=C1/C(=C/c2ccc(-c3ccc([N+](=O)[O-])cc3)o2)SC(=S)N1Cc1ccccc1
4. CC(C)(C)OC(=O)[C@H](Cc1ccccc1)NC(=O)CN1C(=O)/C(=C/c2ccc(-c3ccccc3Cl)o2)SC1=S
5. O=C1/C(=C\c2ccc(-c3cccc(C(F)(F)F)c3)o2)SC(=S)N1Cc1ccccc1

Out:
[7.00, 6.96, 7.00, 6.39, 7.46]

Readout pIC50 for O=C1NC(=S)S/C1=C/c1ccc(-c2ccc(Cl)cc2)o1 , test system APC2/APC11 (Homo sapiens, UniProt Q9NYG5+Q9UJX6), was 5.30

---

target of assay: MDM2/P53 (Homo sapiens, UniProt Q00987)
protocol: biochemical
measure: pIC50
Give bare numbers, as −log10 of the molar value.

Recorded pIC50, per entry:
                                   compound  result_value
0  O=C1/C(=C\c2ccc(-c3ccc(Cl)cc3)o2)SC(=S)N1C1CCS(=O)(=O)C1 (centres unmarked)          5.26
1  CN1C(=O)/C(=C\c2ccc(-c3cccc(Br)c3)o2)SC1=S          5.57
2  O=C1/C(=C\c2ccc(-c3cccc(C(F)(F)F)c3)o2)SC(=S)N1Cc1ccccc1          7.13
3  O=C(O)CCN1C(=O)/C(=C\c2ccc(-c3ccc(Cl)c(Cl)c3)o2)SC1=S          6.28

Batch: pIC50 for all items listed.
1. COc1ccc(N2C(=O)/C(=C\c3ccc(-c4ccc(Br)cc4)o3)SC2=S)cc1
2. CN1C(=O)/C(=C/c2ccc(-c3ccc(S(N)(=O)=O)cc3)o2)SC1=S
3. O=C1/C(=C/c2ccc(-c3ccccc3Cl)o2)SC(=S)N1Cc1ccc2c(c1)OCO2
4. O=C1/C(=C\c2ccc(-c3cccc([N+](=O)[O-])c3)o2)SC(=S)N1Cc1ccccc1
5. O=C(O)CCN1C(=O)/C(=C/c2ccc(-c3ccc(Cl)cc3Cl)o2)SC1=S
6. O=C1/C(=C/c2ccc(-c3ccc(Br)cc3)o2)SC(=S)N1c1ccccc1
7. O=C(O)CCN1C(=O)/C(=C/c2ccc(-c3ccc(Br)cc3)o2)SC1=S

Out:
[6.25, 5.10, 6.35, 4.94, 6.09, 4.97, 5.25]

---

target of assay: APC2/APC11 (Homo sapiens, UniProt Q9NYG5+Q9UJX6)
protocol: biochemical
pIC50: −log10 of the molar value.
I would appreciate it if you labelled entries 1 when pIC50 is 6 or higher, otherwise -1.

As a guide, the following entries are already answered.
                                chem_smiles  assigned_label
0  O=C(O)CN1C(=O)/C(=C\c2ccc(-c3ccc(Cl)c(Cl)c3)o2)SC1=S              -1
1  O=C1/C(=C/c2ccc(-c3ccccc3Cl)o2)SC(=S)N1Cc1ccco1               1
2  O=C1/C(=C/c2ccc(-c3ccccc3Cl)o2)SC(=S)N1CCc1cccs1               1
3  O=C1/C(=C/c2ccc(-c3cccc4ccccc34)o2)SC(=S)N1Cc1ccccc1              -1
4  C=CCN1C(=O)/C(=C\c2ccc(-c3cccc(C(F)(F)F)c3)o2)SC1=S               1

In: Check this compound for pIC50 at or above 6: O=C1NC(=S)S/C1=C/c1ccc(-c2cc(Cl)ccc2Cl)o1
Out: -1

In: Could you tell me if the measured pIC50 of COc1ccc(-c2ccc(/C=C3/SC(=S)NC3=O)o2)cc1Cl reaches 6 or more?
Out: -1

In: hey, is pIC50 for this one >= 6? Cc1c(N2C(=O)/C(=C\c3ccc(-c4ccc(Br)cc4)o3)SC2=S)c(=O)n(-c2ccccc2)n1C
Out: -1

---

For each entry below, report its IC50 value.
target of assay: MDM2/P53 (Homo sapiens)
protocol: biochemical
One number for each entry, in µM.

Use the examples below as a reference point.
>>> df
                                chem_smiles  unit  result_value
0  CCOc1ccc(N2C(=O)/C(=C\c3ccc(-c4ccc(Br)cc4)o3)SC2=S)cc1    µM          14.2
1  Cc1c(N2C(=O)/C(=C\c3ccc(-c4ccc(Br)cc4)o3)SC2=S)c(=O)n(-c2ccccc2)n1C    µM          9.24
2  O=C(O)CN1C(=O)/C(=C\c2ccc(-c3ccc(Cl)c(Cl)c3)o2)SC1=S    µM           1.5

Lab book: IC50 of O=C1/C(=C/c2ccc(-c3ccccc3)o2)SC(=S)N1c1ccccc1 noted as 0.8
